- targetEntity: FLhPIF1 (Homo sapiens, UniProt Q9H611)
- Construct: Full length human PIF1 (FLhPIF1) was expressed and purified as a His-SUMO fusion; His-SUMO (cleaved yes); made in house; 'following similar protocols' to hPIF1HD (ArcticExpress BL21(DE3) E. coli)
- Sequence (Q9H611 1-641): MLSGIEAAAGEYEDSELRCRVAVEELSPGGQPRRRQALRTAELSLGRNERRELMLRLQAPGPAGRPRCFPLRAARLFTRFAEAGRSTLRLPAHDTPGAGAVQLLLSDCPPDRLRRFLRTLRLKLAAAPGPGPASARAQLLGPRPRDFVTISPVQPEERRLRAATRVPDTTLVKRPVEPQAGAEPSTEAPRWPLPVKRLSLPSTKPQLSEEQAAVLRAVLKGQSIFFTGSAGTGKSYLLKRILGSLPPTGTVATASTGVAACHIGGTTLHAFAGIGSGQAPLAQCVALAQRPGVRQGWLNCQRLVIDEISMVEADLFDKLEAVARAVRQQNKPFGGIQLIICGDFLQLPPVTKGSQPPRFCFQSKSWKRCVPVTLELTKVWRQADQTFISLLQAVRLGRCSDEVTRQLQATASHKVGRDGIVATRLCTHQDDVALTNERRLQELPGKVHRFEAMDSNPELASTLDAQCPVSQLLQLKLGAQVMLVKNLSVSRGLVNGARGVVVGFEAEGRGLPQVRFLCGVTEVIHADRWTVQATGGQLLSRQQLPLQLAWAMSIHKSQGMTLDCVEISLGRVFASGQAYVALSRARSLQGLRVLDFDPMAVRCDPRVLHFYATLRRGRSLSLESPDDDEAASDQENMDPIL
- experimentNotes: helicase assay after pre-incubation of SMI with FLhPIF1
- Type: biochemical
- experimentalContext: 2 h pre-incubation at 22°C with 100 nM FLhPIF1, then 1:10 dilution into helicase assay; read-out: IC50 for dsDNA unwinding by FLhPIF1 following pre-incubation
observedProperty: IC50 (µM)
Numbers only, in µM.

Can you look up IC50 on FLhPIF1 (Homo sapiens, UniProt Q9H611) for `CC(=O)Nc1ccc(-c2csc(N)n2)cc1C1=CCNCC1` ? 109

Same thing, different compound: `COC(=O)c1ccc(-c2csc(N)n2)cc1` 300

Same thing, different compound: `Nc1nc(-c2ccc(C(=O)c3ccccc3)cc2)cs1` 79.4

Answer for every listed entry: what is its IC50? The entries follow.
1. N#Cc1ccc(-c2csc(N)n2)cc1
2. CC(=O)Nc1ccc(-c2csc(N)n2)cc1
3. CC(=O)c1ccc(-c2csc(N)n2)cc1

[67.4, 978, 65]

====

What inhibition at 1000 µM was measured for each of the following?
- targetEntity: FLhPIF1 (full length human PIF1) (Homo sapiens, UniProt Q9H611)
- Construct: Full length human PIF1 (FLhPIF1) was expressed and purified as a His-SUMO fusion; His-SUMO (cleaved yes); made in house; 'following similar protocols' to hPIF1HD (ArcticExpress BL21(DE3) E. coli)
- experimentNotes: radiometric strand displacement helicase assay, no pre-incubation
- Format: biochemical
- experimentalContext: 1 mM single point, gel-based DNA unwinding assay, four repeats (S4 n=3)
Numbers only, in %.

Answer for every listed entry: what is its inhibition at 1000 µM? The entries follow.
1. CC(=O)Nc1ccc(-c2csc(N)n2)cc1N1CCNCC1
2. Nc1nc(-c2ccc(C(=O)c3ccccc3)cc2)cs1
3. Cc1ccc(-c2csc(N)n2)cc1
4. CCOc1ccc(-c2csc(N)n2)cc1

69.1
82.3
43.9
25.9

Answer for every listed entry: what is its inhibition at 1000 µM? The entries follow.
1. Nc1nc(-c2ccc(-c3ccccc3)cc2)cs1
2. Nc1nc(-c2ccc([N+](=O)[O-])cc2)cs1
3. CC(=O)Nc1ccc(-c2csc(N)n2)cc1-c1ccc(C)cc1
4. COc1nc(-c2ccc(NC(C)=O)cc2)cs1
5. Cc1cccc(-c2csc(N)n2)c1
6. CNc1nc(-c2ccc(NC(C)=O)cc2)cs1

1: -6.7; 2: 85.6; 3: 80.9; 4: 9.6; 5: -8.1; 6: -6.4

Answer for every listed entry: what is its inhibition at 1000 µM? The entries follow.
1. N#Cc1cccc(-c2csc(N)n2)c1
2. COC(=O)c1cccc(-c2csc(N)n2)c1
3. CCN(CC)c1cc(-c2csc(N)n2)ccc1NC(C)=O
4. COC(=O)c1ccc(-c2csc(N)n2)cc1
5. CC(=O)Nc1ccc(-c2csc(NC(C)=O)n2)cc1

1. -12.6
2. -11
3. 24.6
4. 72.4
5. 57

Answer for every listed entry: what is its inhibition at 1000 µM? The entries follow.
1. CC(=O)Nc1ccc(-c2csc(N)n2)cc1C1=CCNCC1
2. CCN(CC)C(=O)c1ccc(-c2csc(N)n2)cc1
3. Nc1nc(-c2ccc(OC(F)(F)F)cc2)cs1

1. 84.8
2. -4.6
3. 58.3
